target: MNK1 (Homo sapiens (Human), UniProt Q9BUB5); test: MNK1 in vitro kinase assay (Assay 3), Z'-LYTE; type: biochemical; details: compound concentration of 1 μM, read-out: MNK1 % INH
Sequence (Q9BUB5 other isoform, or with tags, fused parts or gaps): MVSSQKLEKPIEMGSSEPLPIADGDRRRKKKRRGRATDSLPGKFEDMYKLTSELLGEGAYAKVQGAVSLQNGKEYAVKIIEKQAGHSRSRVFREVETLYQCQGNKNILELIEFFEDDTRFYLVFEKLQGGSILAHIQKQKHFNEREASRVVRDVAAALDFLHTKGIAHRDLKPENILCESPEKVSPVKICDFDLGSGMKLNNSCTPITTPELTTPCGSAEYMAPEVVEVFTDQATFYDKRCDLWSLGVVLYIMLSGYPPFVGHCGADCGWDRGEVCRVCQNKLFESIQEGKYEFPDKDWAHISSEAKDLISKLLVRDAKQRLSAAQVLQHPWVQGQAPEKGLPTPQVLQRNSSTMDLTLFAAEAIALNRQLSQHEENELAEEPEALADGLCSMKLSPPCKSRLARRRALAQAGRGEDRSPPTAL
Mark Met for reported inhibition at 1 µM of 90% or greater; mark Not met for anything smaller.

Confirm if inhibition at 1 µM reported for the molecule Cc1cc(N=S(C)(C)=O)cc2ncnc(Nc3ccc(F)cc3OC(C)c3ccccn3)c12 (stereo not drawn) is 90% or above.
Not met

Entry Cc1cc(N=S(C)(C)=O)cc2ncnc(Nc3ccc(F)cc3OC(C)c3cccnc3)c12 (stereo not drawn) : is its inhibition at 1 µM no less than 90%?
Met

Is it the case that `C[C@@H](Oc1cc(F)ccc1Nc1ncnc2cc(N=S3(=O)CCCC3)cc(F)c12)C(=O)NCC(F)(F)F` has inhibition at 1 µM reaching or exceeding 90%?
Met

Check if inhibition at 1 µM >= 90% (inclusive). Item: `Cc1cc(N=S(C)(C)=O)cc2ncnc(Nc3ccc(F)cc3OC[C@H]3CCC(=O)N3)c12`
Not met

Given Cc1cc(N=S(C)(C)=O)cc2ncnc(Nc3ccc(F)cc3OC(C)c3ccncc3)c12 (stereo not drawn) , state whether its inhibition at 1 µM is at least 90%.
Met

# check: inhibition at 1 µM of `C[C@@H](Oc1cc(F)ccc1Nc1ncnc2cc(N=S(C)(C)=O)cc(Cl)c12)C(F)(F)F` is greater than or equal to 90%
Met

Kindly determine if inhibition at 1 µM recorded for COc1cc(N=S(C)(C)=O)cc2ncnc(Nc3ccc(F)cc3OC(C)c3cc(C)no3)c12 (stereo not drawn) is above or exactly 90%.
Met

Does `Cc1cc([C@@H](C)Oc2cc(F)ccc2Nc2ncnc3cc(N=S4(=O)CCCC4)cc(Cl)c23)on1` have a reported inhibition at 1 µM of at least 90%?
Met

Assess whether reported inhibition at 1 µM for Cc1cc(N=S(C)(C)=O)cc2ncnc(Nc3ccc(F)cc3OC(C)Cn3ccnc3C)c12 (stereo not drawn) sits at 90% or higher.
Not met

Reported inhibition at 1 µM at or above 90%? Cc1cc(C(C)Oc2cc(F)ccc2Nc2ncnc3cc(N=S(C)(C)=O)cc(F)c23)on1 (stereo not drawn)
Met

Is the recorded value of inhibition at 1 µM equal to or greater than 90% for this molecule? Cc1cc(N=S(C)(C)=O)cc2ncnc(Nc3ccc(F)cc3OC(C)CC3CCOCC3)c12 (stereo not drawn)
Not met

Identify whether the reported inhibition at 1 µM of the following molecule is 90% or greater: `Cc1cc(N=S(C)(C)=O)cc2ncnc(Nc3ccc(F)cc3OC(C)C)c12`
Met

Does `Cc1cc(N=S2(=O)CCCC2)cc2ncnc(Nc3ccc(F)cc3O[C@H](C)C(=O)NC3CCOCC3)c12` have a reported inhibition at 1 µM of at least 90%?
Met

Record `Cc1cc(N=S(C)(C)=O)cc2ncnc(Nc3ccc(F)cc3O[C@H](C)C(=O)N(C)C)c12` ; criterion: inhibition at 1 µM no lower than 90%. Met?
Not met
